Target: HLA-B*15:17
Test: IEDB peptide-MHC binding, purified MHC/direct/fluorescence; filed as Kd, often an IC50 or EC50 that approximates it; bounds were set here for any values at or beyond the usual limits of such assays
Conditions: source organism: Vibrio parahaemolyticus
pKd: −log10 of the molar value.
Endpoint: pKd

Request the reported pKd associated with YSLGQGPVW
≥ 9.00

====

In this section we review reported Kd values for a set of sequences.
Molecular target: HLA-B*15:17
Assay: IEDB peptide-MHC binding, purified MHC/direct/fluorescence; filed as Kd, often an IC50 or EC50 that approximates it; bounds were set here for any values at or beyond the usual limits of such assays
Conditions: source organism: Burkholderia mallei

Some entries whose results are on file:
{"Biosequence": "APAKKAAAK", "Measured Target": "HLA-B*15:17", "Reported Measurement": "≥ 20 µM"}
{"Biosequence": "RAMDTYHRW", "Measured Target": "HLA-B*15:17", "Reported Measurement": "0.0021 µM"}

Request the reported Kd associated with AVAVARVAA
≥ 20 µM

====

Biological target: HLA-A*30:01
Assay: IEDB peptide-MHC binding, purified MHC/competitive/radioactivity; filed as Kd, often an IC50 or EC50 that approximates it; bounds were set here for any values at or beyond the usual limits of such assays
Settings: source organism: Mammarenavirus lassaense
Endpoint: Kd (µM)
Note: unit µM is implicit; provide only the numeric part.

Request the reported Kd associated with KTGECSKCY
18.6

====

Biological target: HLA-B*39:01
Assay: IEDB peptide-MHC binding, purified MHC/direct/fluorescence; filed as Kd, often an IC50 or EC50 that approximates it; bounds were set here for any values at or beyond the usual limits of such assays
Details: source organism: Influenza A virus (A/chicken/Nakorn-Patom/Thailand/CU-K3/2004(H5N1))
Endpoint: pKd
Please report pKd as the negative decimal logarithm of the molar concentration, giving only the number.

Request the reported pKd associated with FHDSNVKNL
6.77

====

Target: HLA-B*58:01
Test: IEDB peptide-MHC binding, purified MHC/competitive/fluorescence; filed as Kd, often an IC50 or EC50 that approximates it; bounds were set here for any values at or beyond the usual limits of such assays
Conditions: source organism: Vibrio antiquarius
Endpoint: Kd

Request the reported Kd associated with FAMTVPLLI
1.4 nM

====

Target: HLA-B*27:05
Assay: IEDB peptide-MHC binding, purified MHC/direct/fluorescence; filed as Kd, often an IC50 or EC50 that approximates it; bounds were set here for any values at or beyond the usual limits of such assays
Conditions: source organism: Mycobacterium tuberculosis
Endpoint: Kd

{"Biosequence": "SPREECGVF", "Kd": "≥ 20 µM"}

Request the reported Kd associated with KLVGIELPK
≥ 20 µM

====

Target: HLA-A*24:02
Experiment: IEDB peptide-MHC binding, purified MHC/competitive/radioactivity; filed as Kd, often an IC50 or EC50 that approximates it; bounds were set here for any values at or beyond the usual limits of such assays
Conditions: source organism: Vaccinia virus Copenhagen
Endpoint: Kd

Request the reported Kd associated with FGDSEEPVTY
≥ 70.3 µM

====

Target: HLA-A*29:02
Test: IEDB peptide-MHC binding, purified MHC/direct/fluorescence; filed as Kd, often an IC50 or EC50 that approximates it; bounds were set here for any values at or beyond the usual limits of such assays
Conditions: source organism: Rickettsia bellii RML369-C
pKd: −log10 of the molar value.
Endpoint: pKd

Request the reported pKd associated with NPLEIYQEI
≤ 4.70
